TARGET_DESC: Retinoic acid receptor RXR-gamma (Homo sapiens)
Sequence (P48443 whole entry): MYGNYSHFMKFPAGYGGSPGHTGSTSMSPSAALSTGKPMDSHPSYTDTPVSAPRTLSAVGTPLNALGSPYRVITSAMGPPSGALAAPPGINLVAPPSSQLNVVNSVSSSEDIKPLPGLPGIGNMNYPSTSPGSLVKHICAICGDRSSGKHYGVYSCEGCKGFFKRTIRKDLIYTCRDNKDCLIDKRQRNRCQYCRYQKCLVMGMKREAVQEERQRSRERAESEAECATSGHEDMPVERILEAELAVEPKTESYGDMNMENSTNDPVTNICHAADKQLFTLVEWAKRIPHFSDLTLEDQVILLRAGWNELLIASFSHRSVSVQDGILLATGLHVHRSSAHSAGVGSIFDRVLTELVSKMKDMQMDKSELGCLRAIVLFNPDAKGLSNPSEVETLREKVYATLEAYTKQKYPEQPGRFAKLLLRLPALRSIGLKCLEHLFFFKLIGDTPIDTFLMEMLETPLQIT
TEST_METHOD_NOTES: Agonist activity at full length human RXR gamma expressed in HEK293T cells measured after 16 hrs by Dual-glo luciferase assay
MEASURED_ATTRIBUTE: EC50
# include the unit after the value

Lookup: Give the reported value of EC50 for this record: "O=C(O)/C=C/c1nc(-c2ccccc2)c(-c2cc(C(F)(F)F)cc(C(F)(F)F)c2)o1"
Found: 57 nM

---

TEST_METHOD_NOTES: Microsomal stability in Sprague-Dawley rat liver microsomes assessed as compound remaining at 10 uM measured auto 60 mins in presence of NADPH by HPLC-UV method
Assay type: ADME, Microsome
CONDITION_PARAMETERS: read-out: Stability
MEASURED_ATTRIBUTE: remaining at 1 h, 10 µM
# include the unit after the value

Lookup: Give the reported value of remaining at 1 h, 10 µM for this record: O=C(O)[C@@H]1C[C@H]1c1nc(-c2ccccc2)c(-c2cc(C(F)(F)F)cc(C(F)(F)F)c2)o1 (racemic)
Found: 79%

---

TEST_METHOD_NOTES: Thermodynamic aqueous solubility of compound at 24 degreeC measured after 24 hrs by SpectraMax M5e plate reader analysis
Type: physicochemical
CONDITION_PARAMETERS: aqueous medium, read-out: Therm_solubility
MEASURED_ATTRIBUTE: solubility thermodynamic at 24 h (µM)
Reply with just the number (in µM).

Lookup: Give the reported value of solubility thermodynamic at 24 h for this record: OC[C@@H]1C[C@H]1c1nc(-c2ccccc2)c(-c2cc(C(F)(F)F)cc(C(F)(F)F)c2)o1 (racemic)
Found: 5.8

Lookup: Give the reported value of solubility thermodynamic at 24 h for this record: O=C(O)[C@@H]1C[C@H]1c1nc(-c2ccccc2)c(-c2cc(C(F)(F)F)cc(C(F)(F)F)c2)o1 (racemic)
Found: 18.3

---

TARGET_DESC: Retinoic acid receptor RXR-alpha (Homo sapiens, UniProt P19793)
Sequence (P19793 whole entry): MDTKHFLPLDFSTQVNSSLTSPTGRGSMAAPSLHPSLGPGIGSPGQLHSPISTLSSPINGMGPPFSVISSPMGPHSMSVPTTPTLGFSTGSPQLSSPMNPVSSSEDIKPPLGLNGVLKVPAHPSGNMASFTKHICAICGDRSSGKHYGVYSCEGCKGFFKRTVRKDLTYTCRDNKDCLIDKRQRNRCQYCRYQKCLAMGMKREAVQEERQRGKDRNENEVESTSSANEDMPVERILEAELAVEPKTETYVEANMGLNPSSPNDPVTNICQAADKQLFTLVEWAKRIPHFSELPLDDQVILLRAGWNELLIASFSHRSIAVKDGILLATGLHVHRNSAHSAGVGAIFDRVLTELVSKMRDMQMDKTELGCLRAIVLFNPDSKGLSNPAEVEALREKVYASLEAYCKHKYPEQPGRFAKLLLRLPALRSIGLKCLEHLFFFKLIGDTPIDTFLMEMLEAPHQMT
MEASURED_ATTRIBUTE: EC50 (µM)
Reply with just the number (in µM).

Lookup: Give the reported value of EC50 for this record: "O=C(O)/C=C/c1nc(-c2ccccc2)c(-c2ccccc2)o1"
Found: 13
